Assignment: determine reported pKd for the given binders.
Target: T1, soluble recombinant version of the IGLV3-21^R110-harboring B-cell receptor (monomeric human IgM, 170.5 kDa) (human)
T1 construct: Produced in 293-HEK cells by transient expression as monomeric human IgM; It was the analyte in solution in the BLI assay; also called soluble IGLV3-21^R110 B-cell receptor; soluble BCR-fragment
T1 sequence (heavy, as listed by the source limits assumed, chain 1 of 2): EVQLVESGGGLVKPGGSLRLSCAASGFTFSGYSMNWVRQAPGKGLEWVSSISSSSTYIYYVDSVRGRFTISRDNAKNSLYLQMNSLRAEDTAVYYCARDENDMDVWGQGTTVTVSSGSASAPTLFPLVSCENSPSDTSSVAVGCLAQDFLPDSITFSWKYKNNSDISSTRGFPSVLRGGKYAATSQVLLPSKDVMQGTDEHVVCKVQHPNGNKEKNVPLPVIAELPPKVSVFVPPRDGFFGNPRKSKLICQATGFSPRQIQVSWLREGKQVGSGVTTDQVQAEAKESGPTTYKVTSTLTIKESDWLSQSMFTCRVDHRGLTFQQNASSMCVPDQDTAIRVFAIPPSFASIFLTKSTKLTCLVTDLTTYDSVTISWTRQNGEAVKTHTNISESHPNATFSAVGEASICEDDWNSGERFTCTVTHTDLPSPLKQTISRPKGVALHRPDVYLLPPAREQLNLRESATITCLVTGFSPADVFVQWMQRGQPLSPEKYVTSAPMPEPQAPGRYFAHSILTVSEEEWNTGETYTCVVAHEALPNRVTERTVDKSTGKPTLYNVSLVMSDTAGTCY
T1 sequence (light, as listed by the source limits assumed, chain 2 of 2): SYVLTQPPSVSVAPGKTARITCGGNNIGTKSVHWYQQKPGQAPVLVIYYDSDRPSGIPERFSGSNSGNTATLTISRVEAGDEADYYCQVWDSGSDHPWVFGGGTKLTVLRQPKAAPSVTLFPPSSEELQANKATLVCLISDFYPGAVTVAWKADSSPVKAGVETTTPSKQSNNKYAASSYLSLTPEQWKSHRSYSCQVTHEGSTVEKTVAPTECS
Assay: BLI (Octet), antibody captured on anti-human IgG Fc sensor, soluble BCR as analyte, 1:1 model
Remember the convention: pKd equals -log10 of concentration in molar.

Request: I'd like to know its pKd. The binder in question is HC7-LC9 (antibody, human IgG1, kappa, V domains shown, Humanized IgG1 / kappa) VH: QVQLQESGPGLVKPSETLSLTCTVSGFSLTSYGIHWIRQSPGRGLEWIGVIWRGGGTDSNAAFMSRITISRDTSKTQVSLKLGSVTAADTAIYYCARSRYDEEESMNYWGQGTSVTVSS VL: EIVLTQSPGTLSLSPGERATLSCRASGNIHSYLAWYQQKPGQAPRLLIYNAKTLADGIPDRFSGSGSGTDYTLTISRLEPEDFAVYYCQHFWNTPPTFGAGTKLELKR
Response: 9.50

Request: Need pKd, item HC7-LC7 (antibody, human IgG1, kappa, V domains shown, Humanized IgG1 / kappa) VH: QVQLQESGPGLVKPSETLSLTCTVSGFSLTSYGIHWIRQSPGRGLEWIGVIWRGGGTDSNAAFMSRITISRDTSKTQVSLKLGSVTAADTAIYYCARSRYDEEESMNYWGQGTSVTVSS VL: QIQLTQSPSFLSASVGDSVTITCRASGNIHSYLAWYQQKPGKAPQLLIYNAKTLADGVPSRFSGSGSGTEYTLTISSLQPEDFATYYCQHFWNTPPTFGAGTKLELKR
Response: 9.57

Request: Looking for the measured pKd of HC7-LC8 (antibody, human IgG1, kappa, V domains shown, Humanized IgG1 / kappa) VH: QVQLQESGPGLVKPSETLSLTCTVSGFSLTSYGIHWIRQSPGRGLEWIGVIWRGGGTDSNAAFMSRITISRDTSKTQVSLKLGSVTAADTAIYYCARSRYDEEESMNYWGQGTSVTVSS VL: EIVLTQSPATLSLSPGERATLSCRASGNIHSYLAWYQQKPGQAPRLLIYNAKTLADGIPARFSGSGSGTDYTLTISSLEPEDFASYYCQHFWNTPPTFGAGTKLELKR , can you help?
Response: 9.60

Request: What value of pKd has been recorded for this entry: HC7-LC6 (antibody, human IgG1, kappa, V domains shown, Humanized IgG1 / kappa) VH: QVQLQESGPGLVKPSETLSLTCTVSGFSLTSYGIHWIRQSPGRGLEWIGVIWRGGGTDSNAAFMSRITISRDTSKTQVSLKLGSVTAADTAIYYCARSRYDEEESMNYWGQGTSVTVSS VL: EIVLTQSPSSLSASVGDSVTITCRASGNIHSYLAWYQQKPGKAPKLLIYNAKTLADGVPSRFSGSGSGTQYTLTISSLQPEDFATYYCQHFWNTPPTFGAGTKLELKR
Response: 9.76
